Hello, the source for this data is patent US20260108521A1, in case you need it.

target: GSPT1 protein (Homo sapiens, UniProt P15170+Q96SW2); construct: endogenous in cells; host or cells: HL-60 cells; test: GSPT1 degradation assay (western blot) in HL-60 cells; format: cell-based; details: GSPT1 protein level, 0.1 μM compound, 2h incubation, western blot normalized to beta-Actin
Sequence (P15170 whole entry): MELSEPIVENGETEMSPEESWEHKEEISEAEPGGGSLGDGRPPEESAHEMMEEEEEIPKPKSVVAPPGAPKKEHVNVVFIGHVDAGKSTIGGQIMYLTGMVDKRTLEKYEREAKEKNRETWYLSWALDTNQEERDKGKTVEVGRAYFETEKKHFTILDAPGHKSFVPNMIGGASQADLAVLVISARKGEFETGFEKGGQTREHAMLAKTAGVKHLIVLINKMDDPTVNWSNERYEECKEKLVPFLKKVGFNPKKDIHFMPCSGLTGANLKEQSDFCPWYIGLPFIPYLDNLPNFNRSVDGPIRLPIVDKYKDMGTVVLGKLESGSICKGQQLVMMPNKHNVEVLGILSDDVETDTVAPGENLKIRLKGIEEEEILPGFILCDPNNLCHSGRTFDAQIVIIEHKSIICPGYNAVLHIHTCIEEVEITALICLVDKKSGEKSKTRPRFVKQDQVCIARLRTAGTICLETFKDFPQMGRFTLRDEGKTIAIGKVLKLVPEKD
Sequence (Q96SW2 whole entry): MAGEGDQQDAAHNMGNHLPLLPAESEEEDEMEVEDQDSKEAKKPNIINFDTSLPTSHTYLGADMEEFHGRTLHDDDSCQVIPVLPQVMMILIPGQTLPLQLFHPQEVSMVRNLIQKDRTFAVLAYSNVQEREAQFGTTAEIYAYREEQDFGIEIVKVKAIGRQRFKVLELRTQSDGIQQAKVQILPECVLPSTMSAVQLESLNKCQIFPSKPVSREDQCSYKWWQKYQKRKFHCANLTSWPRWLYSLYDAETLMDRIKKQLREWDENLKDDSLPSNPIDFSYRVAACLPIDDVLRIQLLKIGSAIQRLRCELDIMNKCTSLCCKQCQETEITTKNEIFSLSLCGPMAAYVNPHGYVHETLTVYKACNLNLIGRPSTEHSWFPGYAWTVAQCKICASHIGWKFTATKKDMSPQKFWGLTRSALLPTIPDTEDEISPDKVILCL
Sequence (Q16531 whole entry partner): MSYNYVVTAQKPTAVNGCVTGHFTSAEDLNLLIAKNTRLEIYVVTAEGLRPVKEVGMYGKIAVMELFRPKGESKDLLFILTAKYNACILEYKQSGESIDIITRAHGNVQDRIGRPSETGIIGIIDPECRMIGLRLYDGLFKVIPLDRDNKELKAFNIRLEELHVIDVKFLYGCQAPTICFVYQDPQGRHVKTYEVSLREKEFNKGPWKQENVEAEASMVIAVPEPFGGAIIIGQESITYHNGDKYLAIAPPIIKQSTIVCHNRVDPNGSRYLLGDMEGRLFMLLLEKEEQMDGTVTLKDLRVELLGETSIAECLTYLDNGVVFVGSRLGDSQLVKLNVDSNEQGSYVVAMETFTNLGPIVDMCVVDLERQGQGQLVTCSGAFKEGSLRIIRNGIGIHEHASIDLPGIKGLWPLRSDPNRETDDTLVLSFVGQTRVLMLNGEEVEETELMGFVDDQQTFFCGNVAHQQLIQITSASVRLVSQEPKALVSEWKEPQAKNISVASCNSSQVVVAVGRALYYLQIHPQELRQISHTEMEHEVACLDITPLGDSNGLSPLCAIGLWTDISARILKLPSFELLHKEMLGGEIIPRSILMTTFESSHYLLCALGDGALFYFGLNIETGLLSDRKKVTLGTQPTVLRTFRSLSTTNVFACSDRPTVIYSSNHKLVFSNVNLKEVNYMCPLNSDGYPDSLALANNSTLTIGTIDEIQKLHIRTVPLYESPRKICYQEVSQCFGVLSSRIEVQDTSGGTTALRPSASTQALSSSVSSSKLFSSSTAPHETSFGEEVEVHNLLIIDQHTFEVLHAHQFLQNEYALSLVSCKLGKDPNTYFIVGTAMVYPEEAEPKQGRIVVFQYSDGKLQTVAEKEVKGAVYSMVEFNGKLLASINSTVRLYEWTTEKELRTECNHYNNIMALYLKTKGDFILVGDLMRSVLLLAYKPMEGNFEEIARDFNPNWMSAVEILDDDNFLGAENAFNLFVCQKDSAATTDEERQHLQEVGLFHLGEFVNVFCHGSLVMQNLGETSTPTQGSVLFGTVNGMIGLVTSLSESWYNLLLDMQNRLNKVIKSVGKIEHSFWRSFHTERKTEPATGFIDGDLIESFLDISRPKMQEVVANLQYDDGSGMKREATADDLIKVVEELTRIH
parameterMeasured: inhibition at 0.1 µM (%)

Some solved cases for reference:
| molecule | inhibition at 0.1 µM (%) |
| --- | --- |
| O=C1CCC(N2Cc3ccc(N4CCNC4=O)cc3C2=O)C(=O)N1 (centres unmarked) [Compound C84971, reference compound] | 0 |
| O=C1CCC(N2C(=O)c3ccc(N4CCC(CN5CCN(c6ccccc6)C5=O)CC4)cc3C2=O)C(=O)N1 (centres unmarked) [Compound 2] | 0 |
| O=C1CCC(c2ccc(N3CCC(CN4CCCN(c5ccccc5)C4=O)CC3)cc2)C(=O)N1 (centres unmarked) [Compound 13] | 0 |
| O=C1CCC(c2ccc(N3CCC(CCN4CCCN(c5ccccc5)C4=O)CC3)cc2)C(=O)N1 (centres unmarked) [Compound 20] | 0 |
| Cc1csc(N2CCCN(CC3CCN(c4ccc5c(c4)C(=O)N(C4CCC(=O)NC4=O)C5=O)CC3)C2=O)n1 (centres unmarked) [Compound 18] | 32 |

(a) Cc1nc2ncc(-c3cccc(N4CCCN(CCC5CN(c6ccc7c(c6)C(=O)N(C6CCC(=O)NC6=O)C7=O)C5)C4=O)c3)cc2o1 (centres unmarked) [Compound 24]
(b) CCc1c[nH]c2ncc(-c3cccc(N4CCCN(CC5CCN(c6ccc7c(c6)C(=O)N(C6CCC(=O)NC6=O)C7=O)CC5)C4=O)c3)c(Cl)c12 (centres unmarked) [Compound A]
Two entries are listed, a and b . Which one carries the higher inhibition at 0.1 µM? Lab log: write the label of the selected item as the result.
b
(b: 85%, a: 26%)

(1) CCc1c[nH]c2ncc(-c3cccc(N4CCCN(CCC5CN(c6ccc7c(c6)C(=O)N(C6CCC(=O)NC6=O)C7=O)C5)C4=O)c3)c(Cl)c12 (centres unmarked) [Compound F]
(2) O=C1CCC(N2C(=O)c3ccc(N4CCC(CN5CCCN(c6cccc(Br)c6)C5=O)CC4)cc3C2=O)C(=O)N1 (centres unmarked) [Compound 9]
(3) O=C1CCC(N2C(=O)c3ccc(N4CCC(CN5CCCN(c6ccccc6)C5=O)CC4)cc3C2=O)C(=O)N1 (centres unmarked) [Compound 1]
Rank order required: inhibition at 0.1 µM, descending. Thanks in advance for listing the labels in the requested order.
1, 3, 2
(1: 86%, 3: 45%, 2: 0%)

(I) O=C1CCC(N2C(=O)c3ccc(N4CCC(CN5CCCCN(c6ccccc6)C5=O)CC4)cc3C2=O)C(=O)N1 (centres unmarked) [Compound 6]
(II) O=C1CCC(N2C(=O)c3ccc(N4CC(CCN5CCN(c6ccccc6)C5=O)C4)cc3C2=O)C(=O)N1 (centres unmarked) [Compound 12]
Two entries are listed, I and II . Which one carries the higher inhibition at 0.1 µM? Lab log: write the label of the selected item as the result.
I
(I: 46%, II: 0%)

* * *

target: GSPT1 protein (Homo sapiens, UniProt P15170+Q96SW2); construct: endogenous in cells; host or cells: HL-60 cells; test: GSPT1 degradation assay (western blot) in HL-60 cells; format: cell-based; details: GSPT1 protein level, 1 μM compound, 2h incubation, western blot normalized to beta-Actin
parameterMeasured: inhibition at 1 µM (%)

| compound | inhibition at 1 µM (%) |
| --- | --- |
| O=C1CCC(c2ccc(N3CCC(CN4CCCN(c5ccccc5)C4=O)CC3)cc2)C(=O)N1 (stereo not shown) [Compound 13] | 0 |
| O=C1CCC(N2Cc3cc(N4CCC(CN5CCCN(c6ccccc6)C5=O)CC4)ccc3C2=O)C(=O)N1 (stereo not shown) [Compound 19] | 38 |
| O=C1CCC(c2ccc(N3CCC(CCN4CCCN(c5ccccc5)C4=O)CC3)cc2)C(=O)N1 (stereo not shown) [Compound 20] | 0 |

(A) Nc1ccc(-c2cccc(N3CCCN(CC4CCN(c5ccc6c(c5)C(=O)N(C5CCC(=O)NC5=O)C6=O)CC4)C3=O)c2)c(Cl)n1 (stereo not shown) [Compound 28]
(B) O=C1CCC(N2C(=O)c3ccc(N4CC(CCN5CCCN(c6cccc(-c7cnc8ccccc8c7)c6)C5=O)C4)cc3C2=O)C(=O)N1 (stereo not shown) [Compound 23]
Two entries are listed, A and B . Which one carries the higher inhibition at 1 µM? Lab log: write the label of the selected item as the result.
A
(A: 78%, B: 45%)

* * *

target: GSPT1 protein (Homo sapiens, UniProt P15170+Q96SW2); construct: endogenous in cells; host or cells: HL-60 cells; experiment: GSPT1 degradation assay (western blot) in HL-60 cells; assay type: cell-based; settings: GSPT1 protein level, 1 μM compound, 2h incubation, western blot normalized to beta-Actin
parameterMeasured: inhibition at 1 µM (%)

| compound | inhibition at 1 µM, % |
| --- | --- |
| O=C1CCC(N2C(=O)c3ccc(N4CCC(CN5CCCN(C6CCCCC6)C5=O)CC4)cc3C2=O)C(=O)N1 (centres unmarked) [Compound 5] | 7 |

(1) CCNc1ccc(-c2cccc(N3CCCN(CC4CCN(c5ccc6c(c5)C(=O)N(C5CCC(=O)NC5=O)C6=O)CC4)C3=O)c2)c(Cl)c1 (centres unmarked) [Compound 30]
(2) CCc1c[nH]c2ccc(-c3cccc(N4CCCN(CCC5CN(c6ccc7c(c6)C(=O)N(C6CCC(=O)NC6=O)C7=O)C5)C4=O)c3)nc12 (centres unmarked) [Compound 27]
Two entries are listed, 1 and 2 . Which one carries the higher inhibition at 1 µM? Lab log: write the label of the selected item as the result.
2

(P) O=C1CCC(N2C(=O)c3ccc(N4CCC(CN5CCCN(c6cccc(Cl)c6)C5=O)CC4)cc3C2=O)C(=O)N1 (centres unmarked) [Compound 14]
(Q) O=C1CCC(N2C(=O)c3ccc(N4CCC(CN5CCCN(c6cccc(-c7cnccc7Cl)c6)C5=O)CC4)cc3C2=O)C(=O)N1 (centres unmarked) [Compound 3]
For P and Q , which recorded inhibition at 1 µM is lower? Lab log: write the label of the selected item as the result.
P
(P: 0%, Q: 48%)

* * *

molecular target: GSPT1 protein (Homo sapiens, UniProt P15170+Q96SW2); construct: endogenous in cells; host or cells: HL-60 cells; experiment: GSPT1 degradation assay (western blot) in HL-60 cells; type: cell-based; settings: GSPT1 protein level, 1 μM compound, 2h incubation, western blot normalized to beta-Actin
// inhibition at 1 µM lookup, one value per entry

Some solved cases for reference:
| molecule | inhibition at 1 µM |
| --- | --- |
| CCc1c[nH]c2ncc(-c3cccc(N4CCCN(CC5CCN(c6ccc7c(c6)C(=O)N(C6CCC(=O)NC6=O)C7=O)CC5)C4=O)c3)c(Cl)c12 (stereo not drawn) | > 95% |
| CN(C)C(=O)c1ccc(-c2cccc(N3CCCN(CC4CCN(c5ccc6c(c5)C(=O)N(C5CCC(=O)NC5=O)C6=O)CC4)C3=O)c2)c(Cl)c1 (stereo not drawn) | < 10% |

Now look at this entry.
Provide GSPT1 protein (Homo sapiens, UniProt P15170+Q96SW2) inhibition at 1 µM reading for O=C1CCC(N2C(=O)c3ccc(N4CCC(CN5CCCN(c6ccc7ncccc7c6)C5=O)CC4)cc3C2=O)C(=O)N1 (stereo not drawn) .
< 5%
